The following binders are listed with their measured LA OD, IGF1 2 ng/ml values.
# ASSAY TARGET: T1, Recombinant human IGF-I (insulin-like growth factor-I) (human, UniProt P05019 49-118)
# T1 construct: Bought; also called IGF1; IGF-1
# PROCEDURE DETAILS: limited antigen ELISA, supernatant 1:25
// return numeric value only (unit: OD 450 nm, not printed)

For mAb 7.251.3 (ATCC Accession Number PTA-7422) (antibody, V domains shown, Fully human, lambda light chain (V1-13/JL2)) VH: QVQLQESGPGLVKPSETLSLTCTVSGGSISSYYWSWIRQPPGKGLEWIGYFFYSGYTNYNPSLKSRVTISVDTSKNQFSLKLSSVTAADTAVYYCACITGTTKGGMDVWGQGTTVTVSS VL: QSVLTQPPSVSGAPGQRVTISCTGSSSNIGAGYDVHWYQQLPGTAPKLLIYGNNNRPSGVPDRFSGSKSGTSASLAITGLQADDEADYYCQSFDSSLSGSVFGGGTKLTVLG the binder record lists LA OD, IGF1 2 ng/ml as 1.09

So for mAb 7.159.2 (ATCC Accession Number PTA-7424) (antibody, V domains shown, Fully human, lambda light chain (V1-19/JL2); also called 7.159.1; 7_159_1) VH: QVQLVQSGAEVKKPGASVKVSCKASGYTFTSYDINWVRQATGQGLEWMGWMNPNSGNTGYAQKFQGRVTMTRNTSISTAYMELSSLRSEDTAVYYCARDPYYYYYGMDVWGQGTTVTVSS VL: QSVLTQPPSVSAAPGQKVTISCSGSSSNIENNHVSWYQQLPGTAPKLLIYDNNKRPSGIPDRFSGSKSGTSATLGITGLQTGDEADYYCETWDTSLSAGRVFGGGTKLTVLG , the logged LA OD, IGF1 2 ng/ml turned out to be 0.56

Quick note, LA OD, IGF1 2 ng/ml for mAb 7.34.1 (ATCC Accession Number PTA-7423) (antibody, V domains shown, Fully human, lambda light chain (V1-13/JL2)) VH: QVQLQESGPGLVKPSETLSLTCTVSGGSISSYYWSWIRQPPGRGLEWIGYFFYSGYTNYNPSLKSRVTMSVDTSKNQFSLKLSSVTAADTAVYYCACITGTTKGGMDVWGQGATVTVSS VL: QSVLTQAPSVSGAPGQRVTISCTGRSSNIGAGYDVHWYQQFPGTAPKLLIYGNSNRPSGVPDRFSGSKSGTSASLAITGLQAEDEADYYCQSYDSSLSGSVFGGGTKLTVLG landed at 0.21

Briefly, LA OD, IGF1 2 ng/ml measured for mAb 7.158.2 (antibody, V domains shown, also called 7.158.1; 7_158_1) VH: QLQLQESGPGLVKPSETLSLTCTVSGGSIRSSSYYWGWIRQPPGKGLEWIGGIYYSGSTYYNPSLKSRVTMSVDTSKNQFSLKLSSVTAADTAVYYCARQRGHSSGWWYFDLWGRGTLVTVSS VL: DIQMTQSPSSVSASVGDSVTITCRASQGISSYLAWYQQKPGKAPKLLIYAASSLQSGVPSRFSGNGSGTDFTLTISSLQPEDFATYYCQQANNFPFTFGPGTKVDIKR : 1.71
